Tested on: MOLT-4 leukemia
Test: NCI tumour cell line growth inhibition, 48 h; in the data active = GI50 below about 0.43 µM; inactive = the rest
Answer with one of the outcomes true (active), false (inactive)

Just curious, what result did COc1ccc(/C=C2\CCCC3=C2N=C2SC=NN2C3c2ccc(OC)c(OC)c2)cc1OC (stereo not drawn) get here?
false

Please indicate how the test categorized `N=c1c2c(=O)n3c(nc2nc2sc4ccc(Cl)cc4n12)-c1ccccc1Sc1ccccc1-3` .
false

Fill in: this test's call for `COc1ccc(/C=C/C(=O)c2ccc(NC(=O)CSc3nnc(-c4cc(OC)c(OC)c(OC)c4)o3)cc2)cc1` is ___
false

Fill in: this test's call for `O=C(Nc1cccc2ccccc12)c1cc2ccccc2cc1O` is ___
false

Just curious, what result did `O=C(Nc1ncc(Cc2ccc(Cl)cc2)s1)c1ccc2c(c1)OCCO2` get here?
true

I would be grateful if you could indicate the recorded call for CC1=C(C(=O)Nc2ccc(Cl)c(Cl)c2)C(c2cccc(O)c2)NC(=S)N1 (stereo not drawn) .
false

Recorded test outcome, item `C#Cc1ccc(-n2c(/C=C/c3ccc4ccccc4n3)nc3ncccc3c2=O)cc1`
false

Short answer needed: outcome of this test for Cn1cc(C2=C(c3cccc(NCC(O)CO)c3)C(=O)NC2=O)c2cc(Cl)ccc21 (stereo not drawn) ?
false

Each compound tested received a call. Report the one for `COc1ccc(-c2oncc2-c2cc(OC)c3c(c2)OCO3)cc1` .
false

Short answer needed: outcome of this test for COc1ccc2c(c1)N(CCO)C1=C(C(=O)OC1)C2c1cccc(Br)c1 (stereo not drawn) ?
false

I would be grateful if you could indicate the recorded call for `COc1ccc2c(c1)c(=O)oc1cc(OC/C(=N\O)c3ccc(F)cc3)ccc12` .
false

Please share the test call associated with CCN(CC)CCCC(C)Nc1ccnc2cc(Cl)c(SCc3ccccc3)cc12 (stereo not drawn) .
false

Name the outcome recorded for `O=C(Nc1cc(Cl)cc(Cl)c1)c1ccc(NC2=C(Cl)C(=O)N(Cc3ccccc3)C2=O)cc1` in the assay.
false

Name the outcome recorded for `COc1cc2c3c(n(CCCN4CCOCC4)c(=O)c2cc1OC)-c1cc2c(cc1C3=O)OCO2` in the assay.
true

Status in this test for `CCOC(=O)c1c2c(n3cccc(F)c13)C(=O)c1ncccc1C2=O` ?
false

// outcome(item) with item = `Cc1cccc2c(=O)c3c(sc12)c(NCCN)nc1ccccc13`
false

// param item: `CN(C)CCOc1cccc(NC2=C(Cl)C(=O)C(Nc3cccc(OCCN(C)C)c3)=C(Cl)C2=O)c1` ; yields the recorded call
true

Dear all, I need the recorded test outcome for `O=C(Nc1cccc(-n2cc(-c3ccncc3)c(-c3ccc(O)c(Cl)c3)n2)c1)Nc1ccc(Cl)c(C(F)(F)F)c1` , thank you.
false

* * *

System: SK-MEL-2 melanoma
Experiment: NCI tumour cell line growth inhibition, 48 h; in the data active = GI50 below about 0.43 µM; inactive = the rest
Could you please pick one outcome from this set? 1 = active, -1 = inactive

How was `COc1ccc(OC)c2c3c(ncc12)-c1cc2c(cc1C3)OCO2` classified in this test?
-1

Returns: the outcome recorded for CCOC(=O)C1=C(N)Oc2cc(OC)ccc2C1c1ccc(F)c(F)c1 (stereo not drawn) in this assay.
-1

What classification did `CCCNNC(=O)c1ccc(CNC(=O)/C=C/c2ccccc2)cc1` end up with in this test?
1

How did this test come out for `O=C(Nc1cc(Cl)cc(Cl)c1)c1ccc(NC2=C(Cl)C(=O)N(Cc3ccccc3)C2=O)cc1` ?
-1

Outcome? COc1ccc2c(c1)N(CCO)C1=C(C(=O)OC1)C2c1cccc(Br)c1 (stereo not drawn)
1

Fill in: this test's call for COc1ccc(C2SC(C)C(=O)N2NC(=O)C(O)c2ccccc2)cc1 (stereo not drawn) is ___
-1

Check the results log: what was the call for `O=C(Nc1cccc(-n2cc(-c3ccncc3)c(-c3ccc(O)c(Cl)c3)n2)c1)Nc1ccc(Cl)c(C(F)(F)F)c1` ?
-1

What classification did `O=C(Nc1ncc(Cc2ccc(Cl)cc2)s1)c1ccc2c(c1)OCCO2` end up with in this test?
1

Write down the call the test reported for this molecule. Item: `O=C(Nc1cccc2ccccc12)c1cc2ccccc2cc1O`
-1

// param item: `CCC1=C[C@H]2CN(CCc3c([nH]c4ccccc34)[C@@](C(=O)OC)(c3cc4c(cc3OC)N(C)[C@H]3[C@@](O)(C(=O)OC)[C@H](OC(C)=O)[C@]5(CC)[C@@H]6C[C@@H]6CN6CC[C@]43[C@@H]65)C2)C1` ; yields the recorded call
1

In this assay, the call recorded for `N#CC(C#N)=Cc1ccc(-c2ccc(-c3nc4ccccc4s3)cc2)s1` was what?
-1

Could you check what this test reported for `COc1ccc2c(c1)CC[C@@H]1[C@@H]2CC[C@]2(C)c3c(cc(C(=O)c4ccccc4)c4sccc34)C[C@@H]12` ?
-1

I would be grateful if you could indicate the recorded call for `C#Cc1ccc(-n2c(/C=C/c3ccc4ccccc4n3)nc3ncccc3c2=O)cc1` .
1
